Molecular target: 72 kDa type IV collagenase (Homo sapiens, UniProt P08253)
Sequence (P08253 whole entry, the tested form may be a part): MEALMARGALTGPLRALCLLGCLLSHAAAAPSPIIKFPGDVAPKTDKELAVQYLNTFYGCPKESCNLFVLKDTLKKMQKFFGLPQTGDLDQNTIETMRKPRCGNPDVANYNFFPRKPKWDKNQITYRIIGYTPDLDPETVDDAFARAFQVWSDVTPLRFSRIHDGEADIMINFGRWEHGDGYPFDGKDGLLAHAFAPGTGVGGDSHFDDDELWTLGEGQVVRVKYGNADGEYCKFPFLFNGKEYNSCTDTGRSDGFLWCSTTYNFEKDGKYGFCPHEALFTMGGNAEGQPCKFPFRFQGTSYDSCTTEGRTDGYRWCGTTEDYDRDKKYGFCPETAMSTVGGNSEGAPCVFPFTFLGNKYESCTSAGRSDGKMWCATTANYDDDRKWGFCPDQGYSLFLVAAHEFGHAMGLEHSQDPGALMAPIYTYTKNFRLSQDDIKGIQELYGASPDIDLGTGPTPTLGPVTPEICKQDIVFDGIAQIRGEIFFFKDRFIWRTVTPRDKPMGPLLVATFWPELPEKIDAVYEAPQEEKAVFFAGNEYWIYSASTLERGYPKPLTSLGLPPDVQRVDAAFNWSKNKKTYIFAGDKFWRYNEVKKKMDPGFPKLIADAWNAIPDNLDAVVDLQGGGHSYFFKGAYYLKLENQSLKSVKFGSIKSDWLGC
Experiment: Inhibition of recombinant human MMP2 catalytic domain (Tyr110 to Asp452 residues) expressed in yeast cells using Mca-Pro-Leu-Gly-Leu-Dpa-Ala-Arg-NH2/TQ3-GABA-Pro-Cha-Abu-Smc-His-Ala-Dab(6'-TAMRA)-Ala-Lys-NH2 as fluorogenic substrate preincubated for 15 mins followed by substrate addition measured after 2 to 4 hrs by fluorometric analysis
Assignment: determine reported IC50 for the given compounds.
State the answer as a number, implicitly in µM.

Challenge: Report IC50 for Cc1ccc2nc(-c3ccc([N+](=O)[O-])cc3)oc2c1 please.
Response given: 9

Challenge: Report IC50 for Cc1ccc2nc(-c3ccc(NC(=O)c4ccccc4)cc3)[nH]c2c1 please.
Response given: 8.6

Challenge: Report IC50 for O=C(Nc1ccc(-c2nc3ccccc3[nH]2)cc1)c1ccc(Br)cc1 please.
Response given: 9.4
